- method.description: Hepatocyte stability, mouse
- Assay type: in vitro ADME
- applied.conditions: male, CD-1, cryopreserved hepatocytes, over 2 h
- Protocol: Human cryopreserved hepatocytes were supplied by BioIVT (lot QZW, 10 pooled donors, Westbury, NY, USA). Mouse cryopreserved hepatocytes were supplied by BioIVT (lot ZPG, pooled male CD-1). […] Cell viability and density were counted using AO/PI fluorescence staining, and then cells were diluted with a serum-free incubation medium to a working cell density of 0.5 × 10^6 viable cells/mL. […]
recorded.metric: CLint scaled at 1 μM
Mention the unit after the number when you answer.

[Q] So what's the measured CLint scaled at 1 μM for this one? CCC(=O)Nc1cc(Nc2cc(NC3CC3)n3ncc(C#N)c3n2)c(F)cc1N1CCC[C@H](NC)C1 [Compound 2]
[A] 180 mL/min/kg

====

- method.description: 24 h PK study in mice
- Assay type: in vivo, CD-1 mice
- applied.conditions: male, mouse, plasma, iv; CD-1 mice, 3 mg/kg i.v.; below limit of quantification; read-out: plasma concentration at the 24 h time point
recorded.metric: concentration at 24 h

[Q] I have this compound here, CCC(=O)Nc1cc(Nc2cc(NC3CC3)n3ncc(C#N)c3n2)c(F)cc1N1CCC[C@H](NC)C1 [Compound 2] , and I need its recorded concentration at 24 h.
[A] < 1.02 nM

====

- method.description: 24 h PK study in mice
- Type: in vivo, CD-1 mice
- applied.conditions: male, po; CD-1 mouse plasma, 10 mg/kg p.o.
recorded.metric: Tmax
Output should be the measured figure followed by the unit it is expressed in.

[Q] Fill in the blank: the reported Tmax of CCC(=O)Nc1cc(Nc2cc(NC3CC3)n3ncc(C#N)c3n2)c(F)cc1N1CCC[C@H](NC)C1 [Compound 2] is ____.
[A] 2.7 h

====

- experimental.system: CLK2 (Homo sapiens)
- Sequence (P49760 whole entry): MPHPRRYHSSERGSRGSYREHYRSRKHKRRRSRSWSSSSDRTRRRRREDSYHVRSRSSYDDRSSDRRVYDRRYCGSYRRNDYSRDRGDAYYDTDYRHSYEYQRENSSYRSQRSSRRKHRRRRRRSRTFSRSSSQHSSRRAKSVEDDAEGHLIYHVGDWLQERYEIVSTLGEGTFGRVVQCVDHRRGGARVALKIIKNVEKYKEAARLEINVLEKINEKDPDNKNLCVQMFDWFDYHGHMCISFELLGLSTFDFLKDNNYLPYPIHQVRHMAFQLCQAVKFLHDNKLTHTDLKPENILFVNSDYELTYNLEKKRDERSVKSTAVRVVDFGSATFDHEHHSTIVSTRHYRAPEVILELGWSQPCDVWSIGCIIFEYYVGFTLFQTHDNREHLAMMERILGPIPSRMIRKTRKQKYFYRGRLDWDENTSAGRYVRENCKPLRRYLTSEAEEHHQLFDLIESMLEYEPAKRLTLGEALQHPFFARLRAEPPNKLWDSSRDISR
- method.description: NanoBRET dose-response CLK2
- applied.conditions: highest concentration tested 30 μM
recorded.metric: IC50

[Q] Need IC50 of "CCC(=O)Nc1cc(Nc2cc(NC3CC3)n3ncc(C#N)c3n2)c(F)cc1N1CCC[C@H](NC)C1" , thanks.
[A] > 30 µM

====

- method.description: 24 h PK study in mice
- Format: in vivo, CD-1 mice
- applied.conditions: male, plasma, po; CD-1 mouse, 10 mg/kg p.o.
recorded.metric: bioavailability (%)
Answer in %, number only, no unit symbol.

[Q] Record request: bioavailability value, item "CCC(=O)Nc1cc(Nc2cc(NC3CC3)n3ncc(C#N)c3n2)c(F)cc1N1CCC[C@H](NC)C1"
[A] 52

====

- method.description: Liver microsomal stability, mouse
- Assay type: in vitro ADME
- applied.conditions: male, CD-1, pH 7.4, mouse liver microsomes, five time points over 1 h, read-out: MLM CLint
recorded.metric: CLint scaled at 5 μM (mL/min/kg)
Kindly answer with a numeric value in mL/min/kg, unit omitted.

[Q] Need CLint scaled at 5 μM of "CCC(=O)Nc1cc(Nc2cc(NC3CC3)n3ncc(C#N)c3n2)c(F)cc1N1CCC[C@H](NC)C1" , thanks.
[A] 48.5

====

- method.description: Hepatocyte stability, human
- Format: in vitro ADME
- applied.conditions: cryopreserved hepatocytes, over 2 h
Field: CLint scaled at 1 μM. Provide a value for each of the molecules that follow.
Report field: quantity (unit follows the number).

[Q] Request the reported CLint scaled at 1 μM associated with CCC(=O)Nc1cc(Nc2cc(NC3CC3)n3ncc(C#N)c3n2)ccc1N1CCC[C@H](NC)C1 [Compound 1]
[A] 4.1 mL/min/kg

[Q] I would be grateful if you could share the reported CLint scaled at 1 μM for CCC(=O)Nc1cc(Nc2cc(NC3CC3)n3ncc(C#N)c3n2)c(F)cc1N1CCC[C@H](NC)C1 [Compound 2] .
[A] 6.9 mL/min/kg

====

- method.description: Kinetic solubility
- Format: physicochemical
- applied.conditions: phosphate buffered saline, 22 °C, aqueous buffer, kinetic from dmso stock; PBS pH 7.4 from DMSO stock
recorded.metric: solubility kinetic at 24 h (µg/mL)
Numeric answer only, unit µg/mL assumed.

[Q] Any idea what its solubility kinetic at 24 h is? The compound is CCC(=O)Nc1cc(Nc2cc(NC3CC3)n3ncc(C#N)c3n2)c(F)cc1N1CCC[C@H](NC)C1 [Compound 2]
[A] 59

====

- method.description: 24 h PK study in mice
- Format: in vivo, CD-1 mice
- applied.conditions: male, mouse, plasma, po; CD-1 mice, 10 mg/kg p.o.; below limit of quantification; read-out: plasma concentration at the 24 h time point
recorded.metric: concentration at 24 h

[Q] Requested read-out: concentration at 24 h. Entry: "CCC(=O)Nc1cc(Nc2cc(NC3CC3)n3ncc(C#N)c3n2)c(F)cc1N1CCC[C@H](NC)C1"
[A] < 1.02 nM

====

- method.description: Snapshot (5 h) PK study with/without EA and 1-ABT
- Type: in vivo
- applied.conditions: male, CD-1, mouse, plasma, ip, 10 mg/kg, CD-1 mice, 10 mg/kg i.p., no co-treatment
recorded.metric: half-life (h)
Answer with a number only, understood to be in h.

[Q] Any idea what half-life was measured for "CCC(=O)Nc1cc(Nc2cc(NC3CC3)n3ncc(C#N)c3n2)c(F)cc1N1CCC[C@H](NC)C1" ?
[A] 2.5

====

- method.description: 24 h PK study in mice
- Format: in vivo, CD-1 mice
- applied.conditions: male, iv; CD-1 mouse plasma, 3 mg/kg i.v.; read-out: Vdss
- Method: In the 24 h PK study, male CD-1 mice (6–8 weeks old, 20–30 g) were dosed by intravenous (i.v.), oral (p.o.), or intraperitoneal (i.p.) administration of compound 2. For i.v. administration, a single dose of compound 2 (3 mg/kg) was administered as 5 mL/kg of a 0.6 mg/mL solution in DMSO/PEG-400/Water (v/v/v, 10:30:60) to six mice. […] The final concentration of the compound was calculated by multiplying the detected concentration by a dilution factor of four. […]
recorded.metric: Vd (L/kg)
Write the value in L/kg as a bare number.

[Q] Can you share its Vd? I mean this compound: "CCC(=O)Nc1cc(Nc2cc(NC3CC3)n3ncc(C#N)c3n2)c(F)cc1N1CCC[C@H](NC)C1"
[A] 3.5

====

- method.description: 24 h PK study in mice
- Format: in vivo, CD-1 mice
- applied.conditions: male, iv; CD-1 mouse plasma, 3 mg/kg i.v.
recorded.metric: AUC(0-t) (µM·h)
Number only, in µM·h; omit the unit.

[Q] # AUC(0-t) lookup, item CCC(=O)Nc1cc(Nc2cc(NC3CC3)n3ncc(C#N)c3n2)c(F)cc1N1CCC[C@H](NC)C1 [Compound 2]
[A] 1.87

====

- experimental.system: CLK4 (Homo sapiens, UniProt Q9HAZ1)
- Sequence (Q9HAZ1 whole entry): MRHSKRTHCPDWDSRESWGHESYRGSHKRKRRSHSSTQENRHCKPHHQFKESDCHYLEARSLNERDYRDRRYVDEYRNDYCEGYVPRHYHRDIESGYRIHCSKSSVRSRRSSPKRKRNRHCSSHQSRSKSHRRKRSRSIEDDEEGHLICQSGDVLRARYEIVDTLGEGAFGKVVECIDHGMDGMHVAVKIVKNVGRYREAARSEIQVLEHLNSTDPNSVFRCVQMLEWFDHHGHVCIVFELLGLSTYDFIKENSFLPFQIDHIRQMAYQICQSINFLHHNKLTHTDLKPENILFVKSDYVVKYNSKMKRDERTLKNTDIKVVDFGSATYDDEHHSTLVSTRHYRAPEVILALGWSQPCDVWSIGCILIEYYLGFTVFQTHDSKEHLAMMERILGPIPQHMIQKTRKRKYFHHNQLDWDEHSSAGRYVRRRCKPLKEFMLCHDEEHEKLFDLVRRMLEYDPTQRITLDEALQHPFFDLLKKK
- method.description: NanoBRET dose-response CLK4
- applied.conditions: highest concentration tested 30 μM
recorded.metric: IC50

[Q] Requested field: IC50. Item: "CCC(=O)Nc1cc(Nc2cc(NC3CC3)n3ncc(C#N)c3n2)c(F)cc1N1CCC[C@H](NC)C1"
[A] > 30 µM

====

- method.description: 24 h PK study in mice
- Format: in vivo, CD-1 mice
- applied.conditions: male, ip; CD-1 mouse plasma, 10 mg/kg i.p.
recorded.metric: half-life (h)
Dear colleague, please return just the value in h, with no unit written.

[Q] Which half-life is listed for CCC(=O)Nc1cc(Nc2cc(NC3CC3)n3ncc(C#N)c3n2)c(F)cc1N1CCC[C@H](NC)C1 [Compound 2] ?
[A] 2.5

====

- experimental.system: DAPK2 (Homo sapiens, UniProt Q9UIK4)
- Sequence (Q9UIK4 whole entry): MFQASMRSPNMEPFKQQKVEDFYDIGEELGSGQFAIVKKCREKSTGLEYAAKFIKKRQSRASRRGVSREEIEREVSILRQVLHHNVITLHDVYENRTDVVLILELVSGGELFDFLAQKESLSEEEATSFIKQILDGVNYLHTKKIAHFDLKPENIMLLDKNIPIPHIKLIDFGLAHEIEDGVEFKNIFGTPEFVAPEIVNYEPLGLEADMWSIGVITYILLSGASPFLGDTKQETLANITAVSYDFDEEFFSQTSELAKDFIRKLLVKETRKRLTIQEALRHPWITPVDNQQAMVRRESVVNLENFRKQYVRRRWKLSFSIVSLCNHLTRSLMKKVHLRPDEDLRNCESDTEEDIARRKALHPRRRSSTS
- method.description: NanoBRET dose-response DAPK2
- applied.conditions: highest concentration tested 30 μM
recorded.metric: IC50

[Q] Reported IC50, compound "CCC(=O)Nc1cc(Nc2cc(NC3CC3)n3ncc(C#N)c3n2)c(F)cc1N1CCC[C@H](NC)C1" : ____
[A] > 30 µM

====

- method.description: CellTiter-Glo cytotoxicity assay
- Format: cell-based, Human
- applied.conditions: human, A549-ACE2 cells; 1.0 μM, 48 h, CellTiter-Glo, quadruplicate
recorded.metric: viability at 48 h, 1 µM (%)
# value in %; strip the unit string

[Q] Quick one: viability at 48 h, 1 µM for "CCC(=O)Nc1cc(Nc2cc(NC3CC3)n3ncc(C#N)c3n2)c(F)cc1N1CCC[C@H](NC)C1" ?
[A] 76

[Q] For the compound shown here, "CCC(=O)Nc1cc(Nc2cc(NC3CC3)n3ncc(C#N)c3n2)ccc1N1CCC[C@H](NC)C1" , give the reported viability at 48 h, 1 µM.
[A] 79

====

- method.description: 24 h PK study in mice
- Type: in vivo, CD-1 mice
- applied.conditions: male, po; CD-1 mouse plasma, 10 mg/kg p.o.
recorded.metric: half-life
Param answer (str): number followed by unit.

[Q] Looking for the measured half-life of "CCC(=O)Nc1cc(Nc2cc(NC3CC3)n3ncc(C#N)c3n2)c(F)cc1N1CCC[C@H](NC)C1" , can you help?
[A] 2.1 h
